Cited source for all entries: patent US8232273B2

molecular target: Bcl-xL (GST-Bcl-xL) (Homo sapiens)
PROPERTY_LABEL: pIC50
The value called pIC50 is obtained by taking minus log10 of the concentration in mol/L.

// below: answered compounds
O=C(Nc1nc2ccccc2s1)c1cccc2c1CN(c1ccc(CCCOc3ccccc3)c(C(=O)O)n1)CC2 ... 6.87
Nc1nc2ccccc2n1-c1ccc(OCCCc2sc(N3CCc4cccc(C(=O)Nc5nc6ccccc6s5)c4C3)nc2C(=O)O)cc1 ... 7.47
O=C(Nc1nc2ccccc2s1)c1cccc2c1CN(c1nc(C(=O)O)c(CN3CCC3c3ccccc3)s1)CC2 (stereo not shown) ... 6.24
CN(C)CCCc1ccc(OCCCc2sc(N3CCc4cccc(C(=O)Nc5nc6ccccc6s5)c4C3)nc2C(=O)O)c(F)c1 ... 9.40
CN(C)CC#Cc1ccc(OCCCc2sc(N3CCc4cccc(C(=O)Nc5nc6ccccc6s5)c4C3)nc2C(=O)O)c(F)c1 ... 9.70

Fill blank: measured pIC50 of the compound O=C(Nc1nc2ccccc2s1)c1cccc2c1CN(c1nc(C(=O)O)c(CCCn3cccn3)s1)CC2 is ____.
7.60

Given the entry O=C(O)c1cccc(N2CCc3cccc(C(=O)Nc4nc5ccccc5s4)c3C2)n1 , report its measured pIC50.
6.51

---

molecular target: Bcl-xL (GST-Bcl-xL) (Homo sapiens); experiment: TR-FRET binding assay, competition with F-Bak for the Bcl-xL binding site; conditions: values listed in the order of Table 1, read-out: TR-FRET assay results (Ki), Bcl-xL
pKi: −log10 of the molar value.
pKi vs 9: at or above is Criterion met, below is Criterion not met.

Answered cases to consult:
O=C(Nc1nc2ccccc2s1)c1cccc2c1CN(c1nc(C(=O)O)c(CN3CCC(c4ccccc4)CC3)s1)CC2 [Example 63] ... Criterion not met
O=C(Nc1nc2ccccc2s1)c1cccc2c1CN(c1nc(C(=O)O)c(CCCN3CCOCC3)s1)CC2 [Example 19] ... Criterion not met
CN(C)CCCc1ccc(OCCCc2sc(N3CCc4cccc(C(=O)Nc5nc6ccccc6s5)c4C3)nc2C(=O)O)cc1 [Example 107] ... Criterion met
O=C(Nc1nc2ccccc2s1)c1cccc2c1CN(c1nc(C(=O)O)c(CCCOc3ccncc3)s1)CC2 [Example 10] ... Criterion met
O=C(Nc1nc2ccccc2s1)c1cccc2c1CN(c1nc(C(=O)O)c(CCCn3cccn3)s1)CC2 [Example 7] ... Criterion not met
O=C(Nc1nc2ccccc2s1)c1cccc2c1CN(c1nc(C(=O)O)c(CCCOc3ccc(-n4cccn4)cc3)s1)CC2 [Example 48] ... Criterion met
O=C(Nc1nc2ccccc2s1)c1cccc2c1CN(c1nc(C(=O)O)c(CN3CCN(c4ccccc4)CC3)s1)CC2 [Example 62] ... Criterion not met
O=C(Nc1nc2ccccc2s1)c1cccc2c1CN(c1nc(C(=O)O)c(CCCN3CCCCC3)s1)CC2 [Example 20] ... Criterion not met

Please check the record O=C(Nc1nc2ccccc2s1)c1cccc2c1CN(c1nc(C(=O)O)c(CCCn3ccnc3)s1)CC2 [Example 16] and state if its pKi is at or above 9.
Criterion not met

Given the entry O=C(Nc1nc2ccccc2s1)c1cccc2c1CN(c1nc(C(=O)O)c(CCCOc3ccc(-n4ccnc4)cc3)s1)CC2 [Example 66] , answer whether its pKi meets or surpasses 9.
Criterion met

State whether the measured pKi reaches 9, counting equality as reaching it, for CN1CCN(c2ccc(OCCCc3sc(N4CCc5cccc(C(=O)Nc6nc7ccccc7s6)c5C4)nc3C(=O)O)c(F)c2)CC1 [Example 93]
Criterion met

pKi >= 9 for N#Cc1c(-c2cccc(OCC#Cc3sc(N4CCc5cccc(C(=O)Nc6nc7ccccc7s6)c5C4)nc3C(=O)O)c2)n[nH]c1N [Example 36] ?
Criterion not met

Test whether the molecule CN1CCN(c2cc(F)c(OCCCc3sc(N4CCc5cccc(C(=O)Nc6nc7ccccc7s6)c5C4)nc3C(=O)O)cc2F)CC1 [Example 108] records pKi of 9 or higher.
Criterion met

---

Readings of pEC50 for the listed compounds
test system: platelets; assay: Cell viability assay for platelets (platelet rich plasma, CellTiter-Glo); assay type: cell-based; conditions: approximately 4 hours at 37 C
Value format note: pEC50 is -log10 of concentration (mol/L); just state the number.

A selection of reference data follows.
CN(C)CC#Cc1ccc(OCCCc2ccc(N3CCc4cccc(C(=O)Nc5nc6ccccc6s5)c4C3)nc2C(=O)O)c(F)c1 ... 8.52
CN(C)CC#Cc1ccc(OCCCc2sc(N3CCc4cccc(C(=O)Nc5nc6ccccc6s5)c4C3)nc2C(=O)O)cc1 ... 7.68
CN(C)CCOc1ccc(-c2ccc(OCCCc3ccc(N4CCc5cccc(C(=O)Nc6nc7ccccc7s6)c5C4)nc3C(=O)O)cc2)nc1 ... 8.52
CN(C)CCOc1ccc(OCCCc2sc(N3CCc4cccc(C(=O)Nc5nc6ccccc6s5)c4C3)nc2C(=O)O)cc1 ... 8.05

API: the following record is the query input.
Bench note: what pEC50 did N#Cc1nccnc1-c1ccc(OCCCc2sc(N3CCc4cccc(C(=O)Nc5nc6ccccc6s5)c4C3)nc2C(=O)O)cc1 show?
8.00

---

Quick record of IC50 values for Bcl-xL (GST-Bcl-xL) (Homo sapiens).
Kindly answer with a numeric value in µM, unit omitted.

O=C(O)c1ccnc(N2CCc3cccc(C(=O)Nc4nc5ccccc5s4)c3C2)n1 [Compound 122] ... 7.5

Tell me the measured IC50 of CC1(C)[C@H]2CC[C@]1(C)C(Oc1ccccc1OCCCc1sc(N3CCc4cccc(C(=O)Nc5nc6ccccc6s5)c4C3)nc1C(=O)O)C2 (stereo partly drawn) [Example 22] , please.
0.05

May I ask what IC50 has been recorded for O=C(Nc1nc2ccccc2s1)c1cccc2c1CN(c1nc(C(=O)O)c(CCCOc3ccncc3)s1)CC2 [Example 10] ?
0.001

---

Consider the following pIC50 values measured on Bcl-xL (GST-Bcl-xL) (Homo sapiens).
By convention, pIC50 is the negative base-10 log of a molar concentration.

The examples below pair each entry with its known result.
CCCN(CCc1ccc(OCCCc2sc(N3CCc4cccc(C(=O)Nc5nc6ccccc6s5)c4C3)nc2C(=O)O)cc1)CC1CCCc2c1ccc(OC)c2OC (stereo not shown) ... 8.10
O=C(Nc1nc2ccccc2s1)c1cccc2c1CN(c1nc(C(=O)O)c(CN3CCN(c4ccccc4)CC3)s1)CC2 ... 5.80
Nc1cccc(OCCCc2sc(N3CCc4cccc(C(=O)Nc5nc6ccccc6s5)c4C3)nc2C(=O)O)c1 ... 9.10
CN(C)CCc1ccc(OCCCc2ccc(N3CCc4cccc(C(=O)Nc5nc6ccccc6s5)c4C3)nc2C(=O)O)cc1 ... 7.70
CN(C)CC#Cc1cc(F)c(OCCCc2sc(N3CCc4cccc(C(=O)Nc5nc6ccccc6s5)c4C3)nc2C(=O)O)cc1F ... 9.52

# lookup: pIC50 of Nc1ccc(OCCCc2sc(N3CCc4cccc(C(=O)Nc5nc6ccccc6s5)c4C3)nc2C(=O)O)cc1
8.70

Consider the compound shown here: O=C(Nc1nc2ccccc2s1)c1cccc2c1CN(c1nc(C(=O)O)c(-c3ccc(CO)cc3)s1)CC2 What is its recorded pIC50?
8.30

---

Documented Ki across a set of compounds
biological target: Bcl-xL (GST-Bcl-xL) (Homo sapiens, UniProt Q07817); assay: TR-FRET binding assay, competition with F-Bak for the Bcl-xL binding site; settings: values listed in the order of Table 1, read-out: TR-FRET assay results (Ki), Bcl-xL
Sequence (Q07817 whole entry, species assumed): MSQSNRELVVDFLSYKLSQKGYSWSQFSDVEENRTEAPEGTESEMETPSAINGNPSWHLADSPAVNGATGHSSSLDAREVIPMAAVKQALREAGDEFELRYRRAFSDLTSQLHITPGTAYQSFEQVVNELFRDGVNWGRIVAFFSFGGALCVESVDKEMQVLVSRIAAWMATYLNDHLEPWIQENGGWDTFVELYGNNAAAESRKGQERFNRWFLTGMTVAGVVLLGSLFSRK
Provide only the numeric value, understood in nM.

Take a look at these entries with their results.
O=C(Nc1nc2ccccc2s1)c1cccc2c1CN(c1ccc(-c3ccccc3)c(C(=O)O)n1)CC2 ... 66.2
CN1CCN(CCCNc2ncnc3c2cnn3-c2ccc(OCCCc3sc(N4CCc5cccc(C(=O)Nc6nc7ccccc7s6)c5C4)nc3C(=O)O)cc2)CC1 ... 0.05
O=C(Nc1nc2ccccc2s1)c1cccc2c1CN(c1ccc(CCCOc3ccccc3)c(C(=O)O)n1)CC2 ... 10.6
CN1CCN(c2ccc(OCCCc3ccc(N4CCc5cccc(C(=O)Nc6nc7ccccc7s6)c5C4)nc3C(=O)O)cc2)CC1 ... 2
O=C(Nc1nc2ccccc2s1)c1cccc2c1CN(c1nc(C(=O)O)c(CCCOc3ccc(N4CCOCC4)cc3)s1)CC2 ... 0.3
CN1CCN(CCCN(CCCc2sc(N3CCc4cccc(C(=O)Nc5nc6ccccc6s5)c4C3)nc2C(=O)O)c2ncnc3c2cnn3-c2ccc(O)cc2)CC1 ... 0.7
CN(C)CC#Cc1ccc(OCCCc2ccc(N3CCc4cccc(C(=O)Nc5nc6ccccc6s5)c4C3)nc2C(=O)O)c(F)c1 ... 0.05

Note: attention shifts to another entry.
Report Ki for O=C(Nc1nc2ccccc2s1)c1cccc2c1CN(c1nc(C(=O)O)c(CCCOc3ccc(-c4ncnc5c(Br)csc45)cc3)s1)CC2 tested on Bcl-xL (GST-Bcl-xL) (Homo sapiens, UniProt Q07817).
0.07
